Tested on: HEK293 clonal cell line overexpressing APOL1 G1
Assay: APOL1 G1 HEK293 cell rescue assay (Example B3)
Type: cell-based
Details: Homo sapiens, HEK293, HEK293 clonal line overexpressing APOL1 G1; geometric mean of at least 2 runs; † = single run; ¥ = concentration at 50% rescue estimated (no sigmoidal curve)
Entries are sorted into classes by EC50 as follows: bucket A: < 0.1 µM; bucket B: ≥ 0.1 µM and < 0.3 µM; bucket C: ≥ 0.3 µM

| compound | classification |
| --- | --- |
| CNC(=O)C1(S(=O)(=O)c2ccc(OCCN3CCC4(CC3)C(=O)Nc3ccc(Cl)cc34)cc2)CC1 [Compound 226] | bucket B |
| C[C@]1(O)C[C@@H](N2C(=O)Cc3cc(OCCN4CCC5(CC4)C(=O)Nc4ccc(Cl)cc45)cnc32)C1 [Compound 345] | bucket A |
| CNC(=O)c1ccc(OCCN2CCC3(CC2)C(=O)Nc2ccc(Cl)cc23)cc1F [Compound 229] | bucket C |
| CS(=O)(=O)c1ccc(OCCN2CCC3(CC2)C(=O)Nc2ccc(C#N)cc23)cc1C(F)(F)F [Compound 107] | bucket B |
| O=C1Nc2ccc(Cl)cc2C12CCN(CCOc1ccc3c(cnn3[C@H]3C[C@H](O)C3)c1)CC2 [Compound 86] | bucket B |
| CS(=O)(=O)C1(c2ccc(OCCN3CCC4(CC3)C(=O)Nc3ccc(Cl)cc34)cc2)CCC1 [Compound 180] | bucket A |
| CS(=O)(=O)C1(c2ncc(OCCN3CCC4(CC3)C(=O)Nc3c(Cl)cc(Cl)cc34)cn2)CC1 [Compound 400] | bucket C |
| CN1C(=O)Cc2cc(OCCN3CCC4(CC3)C(=O)Nc3ccc(Cl)cc34)ccc21 [Compound 65] | bucket C |
| CS(=O)(=O)c1ccc(OCCN2CCC3(CC2)C(=O)Nc2ccc(Cl)cc23)cc1C(F)CF (single isomer, unassigned) [Compound 218] | bucket B |
| CN1C(=O)C2(CCN(CCOc3ccc(C4(S(C)(=O)=O)CC(O)C4)cc3)CC2)c2cc(C(F)F)ccc21 (centres unmarked) [Compound 277] | bucket B |
| CC(COc1ccc2c(c1)CCC(=O)N2C)N1CCC2(CC1)C(=O)Nc1ccc(Cl)cc12 (centres unmarked) [Compound 199] | bucket C |
| CC1(Oc2ncc(OCCN3CCC4(CC3)C(=O)Nc3ccc(Cl)cc34)cn2)COC1 [Compound 172] | bucket B |
| C[C@]1(O)C[C@H](n2ncc3cc(OCCN4CCC5(CC4)C(=O)Nc4ccc(Cl)cc45)cnc32)C1 (single isomer, unassigned) [Compound 408] | bucket A |
| O=C1Nc2ccc(Cl)cc2C12CCN(CCOc1ccc(S(=O)(=O)CCO)cc1)CC2 [Compound 198] | bucket B |
| O=C1Nc2ccc(Cl)cc2C12CCN(CCOc1cnc(CCO)nc1)CC2 [Compound 331] | bucket C |
| CN(c1c(F)cc(OCCN2CCC3(CC2)C(=O)Nc2ccc(Cl)cc23)cc1F)S(C)(=O)=O [Compound 127] | bucket A |
| CS(=O)(=O)c1ccc(OCCN2CCC3(CC2)C(=O)Nc2c(Cl)cc(C#N)cc23)cc1 [Compound 8] | bucket C |
| [2H]C([2H])([2H])N1C(=O)C2(CCN(CCOc3cnc(C4(CO)CC4)nc3)CC2)c2cc(Cl)ccc21 [Compound 420] | bucket B |
| CN1C(=O)C2(CCN(CCOc3ccc4c(c3)CCS4(=O)=O)CC2)c2ccccc21 [Compound 32] | bucket C |
| CN1C(=O)Cc2cc(OCCN3CCC4(CC3)C(=O)N(C)c3ccccc34)ccc21 [Compound 33] | bucket C |
| [2H]C([2H])([2H])N1C(=O)C2(CCN(CCOc3ccc(C4(S(C)(=O)=O)CCC4)cc3)CC2)c2cc(Cl)ccc21 [Compound 415] | bucket A |
| C[C@]1(O)C[C@@H](n2cc3cc(OCCN4CCC5(CC4)C(=O)Nc4ccc(Cl)cc45)cc(C(F)(F)F)c3n2)C1 [Compound 427] | bucket A |
| O=C1CCc2cc(OCCN3CCC4(CC3)C(=O)Nc3ccc(Cl)cc34)cnc2N1[C@H]1C[C@@](O)(C2CC2)C1 (single isomer, unassigned) [Compound 297] | bucket B |
| CS(=O)(=O)c1ccc(OCCN2CCC3(CC2)C(=O)N(CCO)c2ccc(C#N)cc23)cc1C(F)(F)F [Compound 159] | bucket C |
| O=C1Cc2cc(OCCN3CCC4(CC3)C(=O)Nc3ccc(Cl)cc34)cc(F)c2N1 [Compound 256] | bucket B |
| O=C1CCc2cc(OCCN3CCC4(CC3)C(=O)Nc3ccc(Cl)cc34)cnc2N1[C@H]1C[C@@H](O)C1 [Compound 190] | bucket B |
